parameter-measured: CC50

Request: Report CC50 from H1-HeLa cells testing of `NC(=O)c1cccc(C=CC(=O)OCc2ccccc2)c1`
Response: > 100 µM

###

- method-notes: cytotoxicity (CC50) in the antiviral cell culture assay
- condition-label: human
parameter-measured: CC50

Request: Specify CC50 for NC(=O)c1cccc(C=CC(=O)c2ccccn2)c1 [Compound 20] and stop.
Response: > 50 µM

Request: Please report the measured CC50 for CCOC(=O)C=Cc1cc(CN2CCN(c3ncccn3)CC2)cc(C(N)=O)c1 [Compound 29]
Response: > 100 µM

Request: Query CC50 for CCOC(=O)/C(C#N)=C/c1cccc(C(N)=O)c1 [Compound 9]
Response: > 100 µM

Request: Give reported CC50 value for CC(=O)C=Cc1cccc(C(N)=O)c1 [Compound 16, 3-(3-Oxo-but-1-enyl)-benzamide]
Response: 40 µM

Request: Let me know recorded CC50 for CCOC(=O)C=Cc1cc(CN2CCN(c3ccccc3C#N)CC2)cc(C(N)=O)c1 [Compound 30] , thanks.
Response: 79 µM

Request: Let me know recorded CC50 for CN(C)c1ccc(C(=O)/C=C/c2cccc(C(N)=O)c2)cc1 [Compound 18] , thanks.
Response: > 15 µM

###

- method-notes: cytotoxicity (CC50) in the antiviral cell culture assay
- condition-label: human
Answer each item with its documented CC50.

Request: State its CC50 for this compound: CCOC(=O)C=Cc1ccc(OCc2ccccc2)c(C(N)=O)c1 [Compound 15]
Response: > 320 µM

Request: Indicate the recorded CC50 value for this compound: CCOC(=O)/C=C/c1cccc(C(N)=O)c1 [Compound 1]
Response: > 320 µM

Request: Answer with the recorded CC50 of NC(=O)c1cccc(C=CC(=O)c2ccco2)c1 [Compound 21] only.
Response: > 71 µM

Request: State, in one line, measured CC50 of NC(=O)c1cccc(C=CC(=O)OCCc2ccccc2)c1 [Compound 5]
Response: > 320 µM

Request: Specify CC50 for NC(=O)c1cccc(C=CC(=O)c2ccccc2)c1 [Compound 17, 3-(3-Oxo-3-phenyl-prop-1-enyl)-benzamide] and stop.
Response: > 28 µM

###

parameter-measured: melting point

Request: Hello, please tell me recorded melting point for this one: `CCOC(=O)C=Cc1cc(OCc2ccccc2)cc(C(N)=O)c1`
Response: 193 to 194 °C

Request: Return melting point for the following molecule: `CCOC(=O)/C=C/c1cccc(C(N)=O)c1`
Response: 168 to 170 °C

Request: Quickly give me recorded melting point for `CCOC(=O)/C=C/c1cc(O)cc(C(N)=O)c1`
Response: 200 to 202 °C

Request: // fetch melting point given entry NC(=O)c1ccc2c(c1)C=CC2=O [Compound 22, 1-Oxo-1H-indene-5-carboxylic acid amide]
Response: 275 °C (dec.)

###

- Tested on: HRV-14
- method-notes: antiviral cytopathic effect assay employing H1-HeLa cells infected with HRV-14
- Type: cell-based, human rhinovirus serotype 14
- condition-label: Rhinovirus B, HRV14, H1-HeLa, read-out: antiviral EC50
parameter-measured: pEC50
A value of pEC50 is the negative decimal logarithm of a concentration given in moles per litre.

Request: With HRV-14 as the test system, provide measured pEC50 for this compound: CCOC(=O)C=Cc1cc(CN2CCN(c3ccccc3C#N)CC2)cc(C(N)=O)c1 [Compound 30]
Response: 6.22

###

- assay-system: HRV-14 3CP (Human rhinovirus 14, UniProt P03303)
- Construct: The 2A and 3C protease (3CP) process this polyprotein into its functional viral proteins in HRV
- Sequence (P03303 1538-1719): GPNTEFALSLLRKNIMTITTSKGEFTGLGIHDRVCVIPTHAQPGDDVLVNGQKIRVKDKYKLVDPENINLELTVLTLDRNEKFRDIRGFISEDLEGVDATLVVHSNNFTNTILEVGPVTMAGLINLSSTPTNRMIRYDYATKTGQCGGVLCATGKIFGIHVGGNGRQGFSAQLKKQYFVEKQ
- method-notes: 3CP enzyme inhibition assay
- Type: biochemical
- condition-label: Table 1; Serotype 14; NI = no inhibition; read-out: Kobs/[I]
What kinact/KI was measured for each of the following?
Quick reminder: number only, in M⁻¹ s⁻¹, skip the unit.

Request: Input `CCOC(=O)/C=C/c1cc(O)cc(C(N)=O)c1` , output reported kinact/KI.
Response: 47

Request: Give kinact/KI for the following compound: `COC(=O)/C=C/c1cccc(C(N)=O)c1`
Response: 28

Request: Recall and state the measured kinact/KI for `CCOC(=O)/C=C/c1cc(CO)cc(C(N)=O)c1` .
Response: 54

Request: For the compound `NC(=O)c1cccc(C=CC(=O)OCCO)c1` , give its reported kinact/KI.
Response: 42

Request: Recall and state the measured kinact/KI for `NC(=O)c1cccc(C=CC(=O)OCCc2ccccc2)c1` .
Response: 83

Request: Input `CCOC(=O)C=Cc1ccc(OCc2ccccc2)c(C(N)=O)c1` , output reported kinact/KI.
Response: 30

###

- method-notes: cytotoxicity (CC50) in the antiviral cell culture assay
- condition-label: human
Record form. Attribute: CC50. Fill in for each entry.

Request: Identify the reported CC50 for the following entry. CCOC(=O)C=Cc1cc(CN(CCC(=O)OCC)Cc2ccccc2)cc(C(N)=O)c1 [Compound 23]
Response: > 100 µM

Request: Look up CC50 of NC(=O)c1ccc2c(c1)C=CC2=O [Compound 22, 1-Oxo-1H-indene-5-carboxylic acid amide] and report it.
Response: > 20 µM

Request: Answer with the recorded CC50 for the compound listed here: CCOC(=O)/C=C/c1cc(C(N)=O)ccc1C [Compound 10]
Response: > 100 µM

Request: Entry CCOC(=O)/C=C/c1cc(CO)cc(C(N)=O)c1 [Compound 13] needs its CC50 filled in; supply it.
Response: > 100 µM

Request: Query CC50 for CCOC(=O)/C=C/c1cc(O)cc(C(N)=O)c1 [Compound 11]
Response: > 100 µM

Request: Item COC(=O)/C=C/c1cccc(C(N)=O)c1 [Compound 2] : provide CC50
Response: > 320 µM

Request: Find the measured CC50 of NC(=O)c1cccc(C=CC(=O)OCCO)c1 [Compound 4] and report it.
Response: > 320 µM

Request: Please give measured CC50 of the following entry: COc1ccc(C(=O)/C=C/c2cccc(C(N)=O)c2)cc1 [Compound 19]
Response: > 22 µM

Request: Give the value of CC50 reported for the following: CCOC(=O)C=Cc1cc(CN2CCN(C(=O)OCC)CC2)cc(C(N)=O)c1 [Compound 28]
Response: > 100 µM
